Test system: prostate cancer cell lines (e.g. DU145/TXR)
Test: Cell based assay, cell viability (CellTiter-Glo), prostate cancer cell lines
Conditions: Homo sapiens, CWR22 cells, 72 hours treatment, final concentration 0 to 2 μM, read-out: IC50, prostate cancer cell line CWR22
pIC50: −log10 of the molar value.
ASSAY_METRIC: pIC50

Consider the molecule COc1cc(C[S+]([O-])c2[nH]c3c(Br)ccc(Cl)c3c(=O)c2C(C)=O)cc(OC)c1 (stereo not shown) and give its recorded pIC50. 5.81

Consider the molecule CC(=O)c1c([S+](C)[O-])[nH]c2c(Br)ccc(Cl)c2c1=O (stereo not shown) and give its recorded pIC50. 5.74

* * *

Tested on: lung cancer cell lines (e.g. NCI-H23, NCI-H1229)
Assay: Cell based assay, cell viability (CellTiter-Glo), lung cancer cell lines
Conditions: Homo sapiens; MRC-5 cells; 72 hours treatment; CellTiter-Glo; read-out: IC50
Measured IC50 accompanies every entry in the list below.

Past entries and their recorded results:
Under lung cancer cell lines (e.g. NCI-H23, NCI-H1229): report IC50 of `CSc1c(C(C)=O)c(=O)c2c(Cl)ccc(Br)c2n1S(C)(=O)=O` . > 2000 nM

Under lung cancer cell lines (e.g. NCI-H23, NCI-H1229): report IC50 of CC(=O)c1c([S+]([O-])Cc2ccc([N+](=O)[O-])cc2)[nH]c2c(Br)ccc(Cl)c2c1=O (stereo not shown) . 820 nM

Under lung cancer cell lines (e.g. NCI-H23, NCI-H1229): report IC50 of CC(=O)c1c([S+]([O-])Cc2ccc(C(F)(F)F)cc2)[nH]c2c(Br)ccc(Cl)c2c1=O (stereo not shown) . 1010 nM

Under lung cancer cell lines (e.g. NCI-H23, NCI-H1229): report IC50 of CC(=O)c1c([S+](C)[O-])n(S(=O)(=O)c2ccc(C(C)(C)C)cc2)c2c(Br)ccc(Cl)c2c1=O (stereo not shown) . > 2000 nM

Under lung cancer cell lines (e.g. NCI-H23, NCI-H1229): report IC50 of `CSc1[nH]c2ccc(F)cc2c(=O)c1C(C)=O` . > 2000 nM

***
Under lung cancer cell lines (e.g. NCI-H23, NCI-H1229): report IC50 of CC(=O)c1c([S+]([O-])Cc2ccc(C(C)(C)C)cc2)[nH]c2c(Br)ccc(Cl)c2c1=O (stereo not shown) . > 2000 nM

Under lung cancer cell lines (e.g. NCI-H23, NCI-H1229): report IC50 of Cc1cc(C[S+]([O-])c2[nH]c3c(Cl)ccc(Cl)c3c(=O)c2C(=O)C2CC2)no1 (stereo not shown) . 1430 nM

Under lung cancer cell lines (e.g. NCI-H23, NCI-H1229): report IC50 of `CSc1c(C(C)=O)c(=O)c2c(Cl)ccc(Br)c2n1C` . > 2000 nM

Under lung cancer cell lines (e.g. NCI-H23, NCI-H1229): report IC50 of COc1cc(C[S+]([O-])c2[nH]c3c(Br)ccc(Cl)c3c(=O)c2C(C)=O)cc(OC)c1 (stereo not shown) . 1030 nM

Under lung cancer cell lines (e.g. NCI-H23, NCI-H1229): report IC50 of `CC(=O)c1c(SCc2cccc(I)c2)[nH]c2c(Br)ccc(Cl)c2c1=O` . > 2000 nM

Under lung cancer cell lines (e.g. NCI-H23, NCI-H1229): report IC50 of CC(=O)c1c([S+]([O-])Cc2cc(F)cc(F)c2)[nH]c2c(Br)ccc(Cl)c2c1=O (stereo not shown) . > 2000 nM

Under lung cancer cell lines (e.g. NCI-H23, NCI-H1229): report IC50 of `CC(=O)c1c(SCc2ccccc2)nc2c(Br)ccc(Cl)c2c1O` . > 2000 nM
